Target Entity: T1, Len(1-22) monomer peptide (Homo sapiens (Human), UniProt P06312 21-42)
T1 construct: Analyte in SPR; on beads in the pulldown assay; also called Vκ4(LEN(1-22) beads)
T1 peptide: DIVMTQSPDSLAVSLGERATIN
Protocol Summary: SPR, antibody as ligand, peptide as analyte
pKd: −log10 of the molar value.
Use 7 as the dividing line for pKd, with the line itself on the yes side and lower values as no.

Enquiry: Could you verify whether the entry VH9-D54Q + VL4 (antibody, V domains shown, Humanized 11-1F4 variant) VH: QVQLQESGPGLVKPSETLSLTCTVSGFSLSSYGVSWIRQPPGKGLEWLGVIWGQGSTNYHPNLMSRVTISVDTSKSQVLFKLSSVTAADTAVYYCATLDYWGQGTSVTVSS VL: DVVMTQSPLSLPVTLGQPASISCRSSQSLVHRNGNTYLHWFQQRPGQSPRLLIYKVSNRFSGVPDRFSGSGSGTDFTLKISRVEAEDVGVYFCFQTTYVPNTFGGGTKLEIK shows pKd of no less than 7?
Return: no

Enquiry: Next record, please: VH9 + VL4-G34A (antibody, V domains shown, Humanized 11-1F4 variant) VH: QVQLQESGPGLVKPSETLSLTCTVSGFSLSSYGVSWIRQPPGKGLEWLGVIWGDGSTNYHPNLMSRVTISVDTSKSQVLFKLSSVTAADTAVYYCATLDYWGQGTSVTVSS VL: DVVMTQSPLSLPVTLGQPASISCRSSQSLVHRNANTYLHWFQQRPGQSPRLLIYKVSNRFSGVPDRFSGSGSGTDFTLKISRVEAEDVGVYFCFQTTYVPNTFGGGTKLEIK
Return: yes

Enquiry: Try this binder too: VH9-M64I + VL4 (antibody, V domains shown, Humanized 11-1F4 variant) VH: QVQLQESGPGLVKPSETLSLTCTVSGFSLSSYGVSWIRQPPGKGLEWLGVIWGDGSTNYHPNLISRVTISVDTSKSQVLFKLSSVTAADTAVYYCATLDYWGQGTSVTVSS VL: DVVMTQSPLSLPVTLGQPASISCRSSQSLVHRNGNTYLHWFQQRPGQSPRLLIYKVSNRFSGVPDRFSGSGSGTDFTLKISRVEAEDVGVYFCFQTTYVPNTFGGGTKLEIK
Return: yes

Enquiry: Query VH9/VL4 (antibody, V domains shown, Humanized 11-1F4; also called VH9/VL4 parent) VH: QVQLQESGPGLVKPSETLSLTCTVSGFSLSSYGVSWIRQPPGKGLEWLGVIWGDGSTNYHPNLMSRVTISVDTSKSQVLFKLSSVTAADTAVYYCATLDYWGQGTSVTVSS VL: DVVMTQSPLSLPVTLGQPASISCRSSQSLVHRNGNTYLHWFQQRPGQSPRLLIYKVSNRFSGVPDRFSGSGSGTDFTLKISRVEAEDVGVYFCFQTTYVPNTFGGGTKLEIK next
Return: yes

Enquiry: And for VH9-G55V + VL4 (antibody, V domains shown, Humanized 11-1F4 variant) VH: QVQLQESGPGLVKPSETLSLTCTVSGFSLSSYGVSWIRQPPGKGLEWLGVIWGDVSTNYHPNLMSRVTISVDTSKSQVLFKLSSVTAADTAVYYCATLDYWGQGTSVTVSS VL: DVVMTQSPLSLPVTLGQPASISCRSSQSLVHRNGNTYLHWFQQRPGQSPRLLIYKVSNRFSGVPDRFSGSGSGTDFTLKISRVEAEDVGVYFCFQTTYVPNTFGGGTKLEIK ?
Return: no

Enquiry: Then this binder: VH9-D54H + VL4 (antibody, V domains shown, Humanized 11-1F4 variant) VH: QVQLQESGPGLVKPSETLSLTCTVSGFSLSSYGVSWIRQPPGKGLEWLGVIWGHGSTNYHPNLMSRVTISVDTSKSQVLFKLSSVTAADTAVYYCATLDYWGQGTSVTVSS VL: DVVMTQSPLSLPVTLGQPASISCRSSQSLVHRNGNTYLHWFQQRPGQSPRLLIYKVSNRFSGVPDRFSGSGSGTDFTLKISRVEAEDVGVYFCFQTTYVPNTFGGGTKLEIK
Return: no

Enquiry: Then this binder: VH9-G55A + VL4 (antibody, V domains shown, Humanized 11-1F4 variant) VH: QVQLQESGPGLVKPSETLSLTCTVSGFSLSSYGVSWIRQPPGKGLEWLGVIWGDASTNYHPNLMSRVTISVDTSKSQVLFKLSSVTAADTAVYYCATLDYWGQGTSVTVSS VL: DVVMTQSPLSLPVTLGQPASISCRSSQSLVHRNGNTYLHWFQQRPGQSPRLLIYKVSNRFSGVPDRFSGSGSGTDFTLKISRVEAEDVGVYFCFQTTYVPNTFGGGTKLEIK
Return: yes
